# System name: UniProt:O00329
# Experimental protocol: PI3K HTRF enzymatic inhibition assay (cell-free), delta isoform
# Experimental parameters: read-out: IC50 PI3Kd HTRF; recombinant PI3K delta, [ATP] 15 μM, [PIP2] 2 μM, 30 min preincubation
Measured quantity: IC50 (nM)
The response must be a number in nM with no trailing unit.

(Q) I am curious: what IC50 value has been reported for Cc1ccn2nc([C@H](C)Nc3ncnc4[nH]cc(-c5cc(NS(C)(=O)=O)c6cc[nH]c6c5)c34)n(-c3ccccc3)c(=O)c12 [Example 209] ?
(A) 0.2

(Q) Thanks! And C[C@H](Nc1ncnc(N)c1C#N)c1nn2ccc(Cc3cccc(O)c3)c2c(=O)n1-c1ccccc1 [Example 74] ?
(A) 36

(Q) Follow-up item: COc1ncc(-c2c(N)ncnc2N[C@@H](C)c2nn3ccc(C)c3c(=O)n2-c2ccccc2)cc1NS(=O)(=O)c1ccc(F)cc1 [Example 22]
(A) 12

(Q) Do the same for Cc1ccn2nc([C@H](C)Nc3ncnc4[nH]cc(Sc5ccc(O)cc5)c34)n(-c3ccccc3)c(=O)c12 [Example 97] please
(A) 2

(Q) How about COc1ncc(-c2c[nH]c3ncnc(N[C@@H](C)c4nn5ccc(C)c5c(=O)n4-c4ccccc4)c23)cc1NS(C)(=O)=O [Example 45] ?
(A) 2

(Q) Cc1ccn2nc([C@H](C)Nc3ncnc(N)c3-c3cccc(C(=O)Nc4cccc(O)c4)c3)n(-c3ccccc3)c(=O)c12 [Example 168] , same question.
(A) 2

(Q) Now try Cc1ccn2nc([C@H](C)Nc3ncnc4[nH]cc(-c5cccc(Cl)c5O)c34)n(-c3ccccc3)c(=O)c12 [Example 104] .
(A) 1

(Q) Same question for Cc1ccn2nc([C@H](C)Nc3ncnc(N)c3C(=O)N3CC[C@H](O)C3)n(-c3ccccc3)c(=O)c12 [Example 119] please.
(A) 156

(Q) Field entry: Cc1ccn2nc([C@H](C)Nc3ncnc4[nH]cc(-c5cc(C(F)(F)F)nn5C)c34)n(-c3ccccc3)c(=O)c12 [Example 151]
(A) 5

(Q) Same read-out for Cc1ccn2nc([C@H](C)Nc3ncnc4[nH]cc(-c5ccn(CC(F)(F)F)n5)c34)n(-c3ccccc3)c(=O)c12 [Example 145] ?
(A) 0.2

(Q) Also check C[C@H](Nc1ncnc(N)c1-c1nccs1)c1nn2cccc2c(=O)n1-c1ccccc1 [Example 2]
(A) 22

(Q) Quick one: C[C@H](Nc1ncnc(N)c1-c1ccc(N)nc1)c1nn2cccc2c(=O)n1-c1ccccc1 [Example 3]
(A) 40

(Q) Field entry: CC(C)N1CCN(C(=O)CCCC#Cc2ccn3nc([C@H](C)Nc4ncnc(N)c4C#N)n(-c4ccccc4)c(=O)c23)CC1 [Example 128]
(A) 4

(Q) Another compound to look at: C[C@H](Nc1ncnc(N)c1-c1cnn(CCO)c1)c1nn2cccc2c(=O)n1-c1ccccc1 [Example 5]
(A) 17

* * *

# System name: PI3Kδ (PI3Kd) (Homo sapiens (Human))
# Experimental protocol: PI3K HTRF enzymatic inhibition assay (cell-free), delta isoform
# Experimental parameters: read-out: IC50 PI3Kd HTRF; recombinant PI3K delta, [ATP] 15 μM, [PIP2] 2 μM, 30 min preincubation
Measured quantity: IC50 (nM)
Field: numeric (nM). Do not append units.

(Q) Param item = Cc1ccn2nc([C@H](C)Nc3ncnc4[nH]cc(-c5cc(NS(C)(=O)=O)cc(N(C)C)c5)c34)n(-c3ccccc3)c(=O)c12 [Example 76] ; retrieve measured IC50.
(A) 0.8

(Q) How about this molecule: Cc1nnc(-c2cccc(-c3c[nH]c4ncnc(N[C@@H](C)c5nn6ccc(C)c6c(=O)n5-c5ccccc5)c34)c2)o1 [Example 188]
(A) 0.4

(Q) Another: Cc1ccn2nc([C@H](C)Nc3ncnc(N)c3-c3cncc(C(F)(F)F)c3)n(-c3ccccc3)c(=O)c12 [Example 114]
(A) 0.5

(Q) What about Cc1ccn2nc([C@H](C)Nc3ncnc4[nH]cc(-c5cnc6[nH]ccc6c5)c34)n(-c3ccccc3)c(=O)c12 [Example 139] ?
(A) 0.2

(Q) Note, next up: Cc1ccn2nc([C@H](C)Nc3ncnc(N)c3-c3ccc(N4CCN(C(=O)OC(C)(C)C)CC4)cc3)n(-c3ccccc3)c(=O)c12 [Example 152]
(A) 100

(Q) What about this molecule? N#Cc1c(N)ncnc1N[C@@H](CCSCc1ccccc1)c1nn2cccc2c(=O)n1-c1ccccc1 [Example 19]
(A) 95

(Q) Another molecule to look at: Cc1ccn2nc([C@H](C)Nc3ncnc4[nH]cc(-c5cc(O)cc(NC(N)=O)c5)c34)n(-c3ccccc3)c(=O)c12 [Example 175]
(A) 0.3

(Q) Please do the same for Cc1ccn2nc([C@H](C)Nc3ncnc4[nH]cc(-c5cccc(S(=O)(=O)N6CCOCC6)c5)c34)n(-c3ccccc3)c(=O)c12 [Example 85] as well.
(A) 0.3

(Q) Check Cc1ccn2nc([C@H](C)Nc3ncnc(N)c3-c3cc(O)cc(C(=O)N(C)C)c3)n(-c3ccccc3)c(=O)c12 [Example 156] too.
(A) 1

(Q) Consider next the molecule N#Cc1ccn2nc([C@H](CCOCc3ccccc3)Nc3ncnc(N)c3-c3cc(O)cc(F)c3)n(-c3cc(F)cc(F)c3)c(=O)c12 [Example 24] in the same way.
(A) 97

(Q) Check Cc1ccn2nc([C@H](C)Nc3ncncc3-c3cc(O)cc(F)c3)n(-c3ccccc3)c(=O)c12 [Example 35] too.
(A) 4

(Q) Moving on to the next molecule: Cc1ccn2nc([C@H](C)Nc3ncnc4[nH]cc(-c5cc(O)cc(NS(=O)(=O)CCN(C)C)c5)c34)n(-c3ccccc3)c(=O)c12 [Example 150]
(A) 1

(Q) Can you handle Cc1ccn2nc([C@H](C)Nc3ncnc4sccc34)n(-c3ccccc3)c(=O)c12 [Example 59] next?
(A) 10

(Q) Entry to check: Cc1ccn2nc([C@H](C)Nc3ncnc(N)c3Cc3cccc(O)c3)n(-c3ccccc3)c(=O)c12 [Example 64]
(A) 16

* * *

Hi there, I'd appreciate the recorded pIC50 for every entry that follows.
# System name: PI3Kδ (PI3Kd) (Homo sapiens (Human), UniProt O00329)
# Sequence (O00329 whole entry, canonical isoform): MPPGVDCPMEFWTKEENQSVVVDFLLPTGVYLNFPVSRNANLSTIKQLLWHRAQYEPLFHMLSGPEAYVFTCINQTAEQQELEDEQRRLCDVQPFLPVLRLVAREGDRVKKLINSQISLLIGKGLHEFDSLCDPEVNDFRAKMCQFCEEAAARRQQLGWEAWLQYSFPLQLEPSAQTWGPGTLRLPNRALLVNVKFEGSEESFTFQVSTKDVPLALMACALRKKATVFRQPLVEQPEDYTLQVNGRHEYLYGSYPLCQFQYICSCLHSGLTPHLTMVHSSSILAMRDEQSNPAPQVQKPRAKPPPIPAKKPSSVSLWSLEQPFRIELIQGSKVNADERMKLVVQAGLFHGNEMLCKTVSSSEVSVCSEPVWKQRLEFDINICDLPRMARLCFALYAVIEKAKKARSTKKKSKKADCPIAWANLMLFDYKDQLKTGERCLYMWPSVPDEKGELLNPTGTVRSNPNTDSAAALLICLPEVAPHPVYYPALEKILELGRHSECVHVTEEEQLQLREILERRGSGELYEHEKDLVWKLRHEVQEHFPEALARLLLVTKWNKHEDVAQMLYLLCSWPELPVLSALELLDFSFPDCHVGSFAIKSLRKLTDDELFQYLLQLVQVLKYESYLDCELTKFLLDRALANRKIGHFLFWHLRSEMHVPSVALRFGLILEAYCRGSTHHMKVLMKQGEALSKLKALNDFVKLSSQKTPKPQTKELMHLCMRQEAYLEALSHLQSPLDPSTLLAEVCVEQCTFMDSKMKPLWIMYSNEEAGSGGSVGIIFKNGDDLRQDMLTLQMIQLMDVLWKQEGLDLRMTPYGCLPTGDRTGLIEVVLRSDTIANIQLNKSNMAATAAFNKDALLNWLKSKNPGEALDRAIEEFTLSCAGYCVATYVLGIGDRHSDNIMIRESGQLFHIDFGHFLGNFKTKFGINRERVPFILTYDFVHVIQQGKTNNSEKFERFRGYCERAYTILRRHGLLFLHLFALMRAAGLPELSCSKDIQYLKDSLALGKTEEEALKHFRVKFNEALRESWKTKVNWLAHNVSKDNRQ
# Sequence (P27986 whole entry partner, canonical isoform): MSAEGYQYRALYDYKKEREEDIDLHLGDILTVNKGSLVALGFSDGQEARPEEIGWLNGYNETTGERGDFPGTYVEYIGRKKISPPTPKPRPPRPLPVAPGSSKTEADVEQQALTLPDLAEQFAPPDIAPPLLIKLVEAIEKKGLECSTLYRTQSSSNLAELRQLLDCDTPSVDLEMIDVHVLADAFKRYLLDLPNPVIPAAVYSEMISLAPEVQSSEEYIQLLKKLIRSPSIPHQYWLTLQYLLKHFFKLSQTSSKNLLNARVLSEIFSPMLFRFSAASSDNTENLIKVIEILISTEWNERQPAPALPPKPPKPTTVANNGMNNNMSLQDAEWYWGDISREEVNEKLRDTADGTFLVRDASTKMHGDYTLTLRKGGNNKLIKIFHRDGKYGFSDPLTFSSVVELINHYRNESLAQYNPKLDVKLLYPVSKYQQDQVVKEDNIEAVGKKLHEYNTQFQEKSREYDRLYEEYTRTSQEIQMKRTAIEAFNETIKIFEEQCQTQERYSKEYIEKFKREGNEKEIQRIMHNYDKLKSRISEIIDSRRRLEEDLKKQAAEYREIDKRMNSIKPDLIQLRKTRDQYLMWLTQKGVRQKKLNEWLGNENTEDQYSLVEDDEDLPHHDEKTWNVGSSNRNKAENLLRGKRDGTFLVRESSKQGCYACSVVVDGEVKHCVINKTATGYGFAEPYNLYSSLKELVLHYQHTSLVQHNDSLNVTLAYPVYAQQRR
# Experimental protocol: PI3K HTRF enzymatic inhibition assay (cell-free), delta isoform
# Experimental parameters: read-out: IC50 PI3Kd HTRF; recombinant PI3K delta, [ATP] 15 μM, [PIP2] 2 μM, 30 min preincubation
Convention used: pIC50 is expressed as -log10 of the molar concentration.

(Q) Name the recorded pIC50 for `Cc1ccn2nc([C@H](C)Nc3ncnc4[nH]cc(-c5cc(NS(C)(=O)=O)cc6[nH]ncc56)c34)n(-c3ccccc3)c(=O)c12` .
(A) 8.30

(Q) Next molecule up: `Cc1ccn2nc([C@H](C)Nc3ncnc4[nH]cc(-c5ccn(CCN6CCOCC6)n5)c34)n(-c3ccccc3)c(=O)c12`
(A) 8.70

(Q) Would you mind doing `Cc1ccn2nc([C@H](C)Nc3ncnc(N)c3-c3ccc(N4CCNCC4)cc3)n(-c3ccccc3)c(=O)c12` as well?
(A) 6.88

(Q) Consider next the molecule `Cc1ccn2nc([C@H](C)Nc3ncnc(N)c3-c3cc(O)cc(C(F)(F)F)c3)n(-c3ccccc3)c(=O)c12` in the same way.
(A) 8.30

(Q) Item: `Cc1ccn2nc([C@H](C)Nc3ncnc4[nH]cc(-c5ccnc(N6CCC(N(C)C)CC6)c5)c34)n(-c3ccccc3)c(=O)c12`
(A) 9.40

(Q) Query `Cc1ccn2nc([C@H](C)Nc3ncnc4[nH]cc(-c5ccc(NS(=O)(=O)N(C)C)cc5O)c34)n(-c3ccccc3)c(=O)c12` next
(A) 8.70

(Q) Try `Cc1ccn2nc([C@H](C)Nc3ncnc4[nH]cc(C#Cc5ccccc5)c34)n(-c3ccccc3)c(=O)c12` next.
(A) 9.52

* * *

# System name: PI3Kδ (PI3Kd) (Homo sapiens (Human), UniProt O00329)
# Experimental protocol: PI3K HTRF enzymatic inhibition assay (cell-free), delta isoform
# Experimental parameters: read-out: IC50 PI3Kd HTRF; recombinant PI3K delta, [ATP] 15 μM, [PIP2] 2 μM, 30 min preincubation
pIC50: −log10 of the molar value.
I would appreciate it if you labelled entries true (1) when pIC50 is 9 or higher, otherwise false (0).

(Q) API: above_or_equal(metric=pIC50, cutoff=9) for item `Cc1ccn2nc([C@H](C)Nc3ncnc4[nH]cc(-c5ccn(CC(C)(C)CO)n5)c34)n(-c3ccccc3)c(=O)c12`
(A) true (1)

(Q) For `COc1ccc(S(=O)(=O)n2ccc3ccc(-c4c(N)ncnc4N[C@@H](C)c4nn5ccc(C)c5c(=O)n4-c4ccccc4)cc32)cc1` then?
(A) false (0)

(Q) Now give it for `Cc1ccn2nc([C@H](C)Nc3ncnc4[nH]cc(-c5cnn(CCN(C)C)c5)c34)n(-c3ccccc3)c(=O)c12` too.
(A) false (0)

(Q) Then this compound: `Cc1ccn2nc([C@H](C)Nc3ncnc(N)c3-c3cccc(NS(=O)(=O)c4ccc(O)cc4)c3)n(-c3ccccc3)c(=O)c12`
(A) true (1)

(Q) Do the same for `COc1cc(-c2c(N)ncnc2N[C@@H](C)c2nn3ccc(C)c3c(=O)n2-c2ccccc2)cc(C(F)(F)F)n1` please
(A) false (0)

(Q) `Cc1ccn2nc([C@H](C)Nc3ncnc(N)c3C(=O)Oc3cc(O)cc(NS(C)(=O)=O)c3)n(-c3ccccc3)c(=O)c12` , same question.
(A) true (1)

(Q) Try this compound too: `Cc1ccn2nc([C@H](C)Nc3ncnc4[nH]cc(Cc5cc(O)cc(F)c5)c34)n(-c3ccccc3)c(=O)c12`
(A) true (1)

(Q) Thanks! And `Cc1ccn2nc([C@H](C)Nc3ncnc(N)c3-c3cc(O)c4ccn(S(=O)(=O)c5ccc(O)cc5F)c4c3)n(-c3ccccc3)c(=O)c12` ?
(A) false (0)

(Q) Field entry: `CCNc1ncc(-c2c(N)ncnc2N[C@@H](C)c2nn3ccc(C)c3c(=O)n2-c2ccccc2)cc1NS(=O)(=O)c1ccc(O)cc1`
(A) false (0)

(Q) How about this compound: `Cc1ccn2nc([C@H](C)Nc3ncnc(N)c3-c3ccc4cc[nH]c4c3)n(-c3ccccc3)c(=O)c12`
(A) false (0)

(Q) And `Cc1ccn2nc([C@H](C)Nc3ncnc4[nH]cc(Cc5cccc(O)c5)c34)n(-c3ccccc3)c(=O)c12` ?
(A) false (0)

(Q) Proceed to `Cc1ccn2nc([C@H](C)Nc3ncnc4[nH]cc(-c5ccn(-c6cccc(O)c6)n5)c34)n(-c3ccccc3)c(=O)c12`
(A) true (1)

(Q) Okay, and `Cc1ccn2nc([C@H](C)Nc3ncnc(N)c3-c3cncc(OC(F)F)c3)n(-c3ccccc3)c(=O)c12` ?
(A) true (1)

(Q) Queued: `Cc1ccn2nc([C@H](C)Nc3ncnc4[nH]cc(C(=O)OCc5ccccc5)c34)n(-c3ccccc3)c(=O)c12`
(A) false (0)

(Q) Param item: `C[C@H](Nc1ncnc(N)c1-c1nnn[nH]1)c1nn2cccc2c(=O)n1-c1ccccc1`
(A) false (0)

(Q) // repeat for `Cc1ccn2nc([C@H](C)Nc3ncnc(N)c3-c3cnc(N)nc3)n(-c3ccccc3)c(=O)c12` and report
(A) false (0)

(Q) Another compound: `C[C@H](Nc1ncnc(N)c1-c1cc(O)cc(F)c1)c1nn2ccc(Sc3ccccc3)c2c(=O)n1-c1ccccc1`
(A) false (0)

(Q) Next record, please: `Cc1ccn2nc([C@H](C)Nc3ncnc(N)c3-c3cncc(OCC(F)(F)F)c3)n(-c3ccccc3)c(=O)c12`
(A) false (0)

(Q) Try this compound too: `COc1cccc(Cc2ccn3nc([C@H](C)Nc4ncnc(N)c4C#N)n(-c4ccccc4)c(=O)c23)c1`
(A) false (0)

(Q) Entry to check: `Cc1ccn2nc([C@H](C)Nc3ncnc4[nH]cc(-c5cc(NS(C)(=O)=O)cc(C(=O)N(C)C)c5)c34)n(-c3ccccc3)c(=O)c12`
(A) true (1)

(Q) Please give the result for `Cc1ccn2nc(CNc3ncnc(N)c3-c3cncc(C(F)F)c3)n(-c3ccccc3)c(=O)c12` too.
(A) false (0)

Data provenance: patent US9388189B2
